- Target or test system: T1, eukaryotically produced human IL-6 (human, UniProt P05231 30-212)
- T1 construct: also called eukIL-6; Euk IL-6
- Procedure summary: SPR; periplasmic fraction
Record form. Attribute: kon. Fill in for each entry.

I am curious: what kon value has been reported for Fab 55E2 (Fab, V domains shown, VL-shuffled Fab of 29B11, periplasmic fraction; also called 55E2b) VH: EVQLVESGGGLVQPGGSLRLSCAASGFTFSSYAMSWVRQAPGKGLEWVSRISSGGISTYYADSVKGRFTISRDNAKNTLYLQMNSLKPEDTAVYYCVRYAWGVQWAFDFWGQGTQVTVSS VL: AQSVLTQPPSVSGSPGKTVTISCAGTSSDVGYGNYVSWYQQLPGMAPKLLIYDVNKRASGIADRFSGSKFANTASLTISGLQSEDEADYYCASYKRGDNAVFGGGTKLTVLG ? 414000 M⁻¹ s⁻¹

Do the same for Fab 55H1 (Fab, V domains shown, VL-shuffled Fab of 29B11, periplasmic fraction; also called 55H1c) VH: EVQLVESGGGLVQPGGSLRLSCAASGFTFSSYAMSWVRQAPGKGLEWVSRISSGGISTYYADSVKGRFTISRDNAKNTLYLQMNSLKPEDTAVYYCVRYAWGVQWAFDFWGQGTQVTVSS VL: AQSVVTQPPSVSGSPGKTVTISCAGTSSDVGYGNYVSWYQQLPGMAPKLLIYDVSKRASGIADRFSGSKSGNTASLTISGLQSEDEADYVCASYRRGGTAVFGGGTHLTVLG please 1.13e+06 M⁻¹ s⁻¹

All values here come from patent US20220073604A1.
